Where do the numbers come from? From PubChem BioAssay (NCI).

- System: COLO 205 colon
- experiment description: NCI tumour cell line growth inhibition, 48 h; in the data active means GI50 below about 0.43 µM; inactive means the rest
Hi! Could you answer with just one of these? active, inactive

molecule: O=C1/C(=C/c2ccc(F)cc2)CCOc2ccc([N+](=O)[O-])cc21
discrete label: inactive

Check the results log: what was the call for Fc1cccc(COc2ccc(Nc3ncncc3C#Cc3ccccc3)cc2Cl)c1 ?
inactive

Check the results log: what was the call for Brc1cccc(-c2cc(-c3ccc4c(c3)OCCO4)[nH]n2)c1 ?
inactive

Check the results log: what was the call for Nc1n[nH]c2ccc([C@@H]3Nc4ccc5[nH]ncc5c4[C@H]4[C@H]5CCC(C5)[C@H]43)cc12 ?
active

Check the results log: what was the call for COc1cc(C(=O)NC2c3ccccc3-c3ccccc32)c(N)cc1OCc1ccccc1 ?
inactive

Check the results log: what was the call for CN1CCN(CC#Cc2cccc(C(=O)c3cnn(-c4ccc(F)cc4)c3N)c2)CC1 ?
inactive

Check the results log: what was the call for CC(=O)c1ccc(Nc2cc(-c3ccccc3)nc3c(O)cccc23)cc1 ?
inactive

Check the results log: what was the call for Cc1ccc2c(C(C[N+](=O)[O-])c3cccs3)c(-c3ccccc3)[nH]c2c1 (stereo not given) ?
inactive

Check the results log: what was the call for CCCCCCCCCCCCCC(=S)NCCCC[C@H](NC(=O)OCc1ccccc1)C(=O)Nc1ccccc1 ?
inactive

Check the results log: what was the call for CC1(C)N=C(N)N=C(N)N1c1ccc(CCCCc2ccc(S(=O)(=O)F)cc2)cc1 ?
inactive
